STUDY SYSTEM: Fructose-1,6-bisphosphatase 1 (Sus scrofa, UniProt P00636)
Sequence (P00636 whole entry): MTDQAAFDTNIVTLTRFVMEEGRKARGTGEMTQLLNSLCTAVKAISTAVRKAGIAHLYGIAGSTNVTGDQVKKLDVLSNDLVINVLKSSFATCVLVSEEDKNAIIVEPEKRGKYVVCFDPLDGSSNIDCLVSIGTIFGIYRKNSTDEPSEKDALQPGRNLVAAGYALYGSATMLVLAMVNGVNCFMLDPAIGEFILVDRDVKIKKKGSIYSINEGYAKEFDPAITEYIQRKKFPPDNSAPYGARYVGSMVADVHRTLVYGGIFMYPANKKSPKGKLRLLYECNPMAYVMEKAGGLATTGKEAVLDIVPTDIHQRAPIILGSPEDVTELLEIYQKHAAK
ASSAY PROTOCOL: Inhibition of pig FBPase expressed in Escherichia coli EK1601 by spectrophotometry
EXPERIMENTAL SETUP: read-out: IC50
pIC50: −log10 of the molar value.
Measured pIC50 by item

COMPOUND: O=C(O)c1cccc(Nc2nc(-c3ccccc3)cs2)c1
STUDY SYSTEM: Fructose-1,6-bisphosphatase 1 (Sus scrofa, UniProt P00636)
pIC50: 3.24
//
COMPOUND: O=[N+]([O-])c1ccc(Nc2nc(-c3ccc(O)cc3)cs2)cc1
STUDY SYSTEM: Fructose-1,6-bisphosphatase 1 (Sus scrofa, UniProt P00636)
pIC50: 3.61
//
COMPOUND: Oc1ccc(Nc2nc(-c3ccc(O)cc3)cs2)cc1
STUDY SYSTEM: Fructose-1,6-bisphosphatase 1 (Sus scrofa, UniProt P00636)
pIC50: 4.32
//
COMPOUND: Nc1nc(-c2ccccc2)cs1
STUDY SYSTEM: Fructose-1,6-bisphosphatase 1 (Sus scrofa, UniProt P00636)
pIC50: 2.86
//
COMPOUND: Oc1ccc(-c2csc(Nc3ccccc3)n2)cc1
STUDY SYSTEM: Fructose-1,6-bisphosphatase 1 (Sus scrofa, UniProt P00636)
pIC50: 3.50
//
COMPOUND: c1ccc(Nc2nc(-c3ccccc3)cs2)cc1
STUDY SYSTEM: Fructose-1,6-bisphosphatase 1 (Sus scrofa, UniProt P00636)
pIC50: 2.60
//
COMPOUND: Cc1cc(C)n(CC(O)COc2ccc3ccccc3c2)n1 (stereo not drawn)
STUDY SYSTEM: Fructose-1,6-bisphosphatase 1 (Sus scrofa, UniProt P00636)
pIC50: 2.52
//
COMPOUND: Oc1ccc(-c2csc(Nc3ccccc3O)n2)c(O)c1
STUDY SYSTEM: Fructose-1,6-bisphosphatase 1 (Sus scrofa, UniProt P00636)
pIC50: 4.70
//
COMPOUND: Oc1cccc(Nc2nc(-c3ccc(O)cc3O)cs2)c1
STUDY SYSTEM: Fructose-1,6-bisphosphatase 1 (Sus scrofa, UniProt P00636)
pIC50: 5.22
//
COMPOUND: NS(=O)(=O)c1cccc(Nc2nc(-c3ccccc3)cs2)c1
STUDY SYSTEM: Fructose-1,6-bisphosphatase 1 (Sus scrofa, UniProt P00636)
pIC50: 3.98
//
COMPOUND: Nc1nc(-c2ccc(O)cc2O)cs1
STUDY SYSTEM: Fructose-1,6-bisphosphatase 1 (Sus scrofa, UniProt P00636)
pIC50: 4.03
//
COMPOUND: NS(=O)(=O)c1cccc(Nc2nc(-c3ccc(O)cc3)cs2)c1
STUDY SYSTEM: Fructose-1,6-bisphosphatase 1 (Sus scrofa, UniProt P00636)
pIC50: 4.30
//
COMPOUND: Oc1ccccc1-c1csc(Nc2ccccc2)n1
STUDY SYSTEM: Fructose-1,6-bisphosphatase 1 (Sus scrofa, UniProt P00636)
pIC50: 3.92
//
COMPOUND: Oc1ccc(Nc2nc(-c3ccccc3)cs2)cc1
STUDY SYSTEM: Fructose-1,6-bisphosphatase 1 (Sus scrofa, UniProt P00636)
pIC50: 3.91
//
COMPOUND: O=C(O)c1cccc(Nc2nc(-c3ccc(O)cc3)cs2)c1
STUDY SYSTEM: Fructose-1,6-bisphosphatase 1 (Sus scrofa, UniProt P00636)
pIC50: 4.32
//
COMPOUND: Nc1ncnc2c1ncn2[C@@H]1O[C@H](COP(=O)(O)O)[C@@H](O)[C@H]1O [ADENOSINE PHOSPHATE]
STUDY SYSTEM: Fructose-1,6-bisphosphatase 1 (Sus scrofa, UniProt P00636)
pIC50: 5.89
//
COMPOUND: Oc1ccccc1Nc1nc(-c2ccccc2)cs1
STUDY SYSTEM: Fructose-1,6-bisphosphatase 1 (Sus scrofa, UniProt P00636)
pIC50: 3.57
//
COMPOUND: Oc1ccc(Nc2nc(-c3ccc(O)cc3O)cs2)cc1
STUDY SYSTEM: Fructose-1,6-bisphosphatase 1 (Sus scrofa, UniProt P00636)
pIC50: 4.96
//
COMPOUND: NS(=O)(=O)c1ccc(Nc2nc(-c3ccc(O)cc3O)cs2)cc1
STUDY SYSTEM: Fructose-1,6-bisphosphatase 1 (Sus scrofa, UniProt P00636)
pIC50: 4.26
//
COMPOUND: Oc1ccc(-c2csc(Nc3cccc(O)c3)n2)cc1
STUDY SYSTEM: Fructose-1,6-bisphosphatase 1 (Sus scrofa, UniProt P00636)
pIC50: 4.89
//
COMPOUND: Oc1ccc(-c2csc(Nc3ccccc3)n2)c(O)c1
STUDY SYSTEM: Fructose-1,6-bisphosphatase 1 (Sus scrofa, UniProt P00636)
pIC50: 3.46
//
COMPOUND: Oc1ccc(-c2csc(Nc3ccccc3O)n2)cc1
STUDY SYSTEM: Fructose-1,6-bisphosphatase 1 (Sus scrofa, UniProt P00636)
pIC50: 4.82
//
COMPOUND: O=C(O)c1ccc(S(=O)(=O)c2ccc(C(=O)O)cc2)cc1
STUDY SYSTEM: Fructose-1,6-bisphosphatase 1 (Sus scrofa, UniProt P00636)
pIC50: 3.12
//
COMPOUND: Nc1nc(-c2ccc(O)cc2)cs1
STUDY SYSTEM: Fructose-1,6-bisphosphatase 1 (Sus scrofa, UniProt P00636)
pIC50: 5.96
//
COMPOUND: CCc1c(C)sc(NC(=S)NCc2ccccn2)c1C(=O)OC
STUDY SYSTEM: Fructose-1,6-bisphosphatase 1 (Sus scrofa, UniProt P00636)
pIC50: 4.70
//
COMPOUND: Oc1cccc(Nc2nc(-c3ccccc3)cs2)c1
STUDY SYSTEM: Fructose-1,6-bisphosphatase 1 (Sus scrofa, UniProt P00636)
pIC50: 4.46
//
COMPOUND: O=[N+]([O-])c1cccc(Nc2nc(-c3ccc(O)cc3)cs2)c1
STUDY SYSTEM: Fructose-1,6-bisphosphatase 1 (Sus scrofa, UniProt P00636)
pIC50: 4.32
//
COMPOUND: NS(=O)(=O)c1ccc(Nc2nc(-c3ccccc3)cs2)cc1
STUDY SYSTEM: Fructose-1,6-bisphosphatase 1 (Sus scrofa, UniProt P00636)
pIC50: 3.84
